Biological target: KDM2B (FBXL10) (Homo sapiens)
Construct: KDM2B; BPS,; 1-650; Bac; purchased BPS Bioscience, US; host or cells: baculovirus system
Sequence (Q8NHM5 1-650): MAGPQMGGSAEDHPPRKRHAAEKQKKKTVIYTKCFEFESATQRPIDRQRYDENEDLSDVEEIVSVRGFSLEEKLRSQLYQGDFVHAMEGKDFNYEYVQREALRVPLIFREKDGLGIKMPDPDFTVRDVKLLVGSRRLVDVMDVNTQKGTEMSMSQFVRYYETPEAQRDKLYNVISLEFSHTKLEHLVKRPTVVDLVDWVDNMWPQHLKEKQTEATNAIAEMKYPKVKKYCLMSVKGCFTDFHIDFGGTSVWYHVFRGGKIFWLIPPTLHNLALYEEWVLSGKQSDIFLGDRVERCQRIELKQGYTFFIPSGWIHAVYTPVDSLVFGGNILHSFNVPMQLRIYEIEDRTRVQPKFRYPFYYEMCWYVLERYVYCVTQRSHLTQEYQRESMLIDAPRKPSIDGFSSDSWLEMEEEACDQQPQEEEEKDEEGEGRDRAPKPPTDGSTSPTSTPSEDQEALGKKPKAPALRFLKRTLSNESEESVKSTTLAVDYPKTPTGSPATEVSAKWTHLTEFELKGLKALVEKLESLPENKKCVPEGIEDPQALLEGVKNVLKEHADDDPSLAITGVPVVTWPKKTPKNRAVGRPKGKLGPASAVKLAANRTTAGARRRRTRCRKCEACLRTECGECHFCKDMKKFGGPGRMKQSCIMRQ
Assay: Histone lysine demethylase AlphaLISA assay, KDM2B
Assay type: biochemical
Conditions: AlphaLISA, in vitro; read-out: HDME Inhibition KDM2B
READOUT: pIC50
// scale note: pIC50 = -log10(conc_M); give the bare number

Illustrative cases are given below, each with its answer.
INSERT INTO assay_data (compound, target_system, result_value) VALUES
  ('Cc1cc(C(=O)O)cc(CNCc2ncc(CCc3ccccc3)n2Cc2ccc(F)cc2)n1', 'KDM2B (FBXL10) (Homo sapiens)', 6.34),
  ('O=C(O)c1cc(CO)nc(CNCc2nncn2CCCc2ccccc2)c1', 'KDM2B (FBXL10) (Homo sapiens)', 6.47),
  ('CC(=O)c1ccc(Cn2ccnc2CNCc2cc(C(=O)O)cc(C)n2)cc1', 'KDM2B (FBXL10) (Homo sapiens)', 5.65),
  ('Cc1cc(C(=O)O)cc(CNCc2nnc(C)n2Cc2ccc(Cl)c(Cl)c2)n1', 'KDM2B (FBXL10) (Homo sapiens)', 5.94),
  ('CCOc1ccc(CC(C)C)c(CNCc2cc(C(=O)O)cc(CO)n2)n1', 'KDM2B (FBXL10) (Homo sapiens)', 6.98);

The value of pIC50 measured for the compound Cc1cc(C(=O)O)cc(CNCc2nnc(Cc3cccs3)n2Cc2ccc(F)cc2)n1 turned out to be 6.22

The value of pIC50 measured for the compound CCCCCCc1cccnc1CCNCc1cc(C(=O)O)cc(C)n1 turned out to be 5.49

The value of pIC50 measured for the compound Cc1cc(C(=O)O)cc(CNCc2nc3c(n2Cc2ccc(F)cc2)CCC3)n1 turned out to be 5.95

The value of pIC50 measured for the compound CCN(CCN(C)C)C(=O)CNCc1cc(C(=O)O)cc(CO)n1 turned out to be 6.62

The value of pIC50 measured for the compound Cc1cc(C(=O)O)cc(CNCCc2ncccc2CCC(C)C)n1 turned out to be 5.27

The value of pIC50 measured for the compound CCc1cnc(CNCc2cc(C(=O)O)cc(CO)n2)n1Cc1ccc(F)cc1 turned out to be 7.15
